# method-description: in vitro
# recorded-conditions: human, Mitochondrial membrane potential AC50
assay-metric: AC50 at 72 h

[[record]]
smiles_representation = "CNc1c(C(N)=O)c2ccccn2c1C(=O)c1ccc(F)cc1"
endpoint_value = "43.4 µM"


Please report the recorded AC50 at 72 h for Nc1ncc(-c2nc3ccccc3o2)c(-c2ccncc2)n1 .
> 100 µM

###

# measurement-target: EPHA2 (Homo sapiens)
# Sequence (P29317 24-976): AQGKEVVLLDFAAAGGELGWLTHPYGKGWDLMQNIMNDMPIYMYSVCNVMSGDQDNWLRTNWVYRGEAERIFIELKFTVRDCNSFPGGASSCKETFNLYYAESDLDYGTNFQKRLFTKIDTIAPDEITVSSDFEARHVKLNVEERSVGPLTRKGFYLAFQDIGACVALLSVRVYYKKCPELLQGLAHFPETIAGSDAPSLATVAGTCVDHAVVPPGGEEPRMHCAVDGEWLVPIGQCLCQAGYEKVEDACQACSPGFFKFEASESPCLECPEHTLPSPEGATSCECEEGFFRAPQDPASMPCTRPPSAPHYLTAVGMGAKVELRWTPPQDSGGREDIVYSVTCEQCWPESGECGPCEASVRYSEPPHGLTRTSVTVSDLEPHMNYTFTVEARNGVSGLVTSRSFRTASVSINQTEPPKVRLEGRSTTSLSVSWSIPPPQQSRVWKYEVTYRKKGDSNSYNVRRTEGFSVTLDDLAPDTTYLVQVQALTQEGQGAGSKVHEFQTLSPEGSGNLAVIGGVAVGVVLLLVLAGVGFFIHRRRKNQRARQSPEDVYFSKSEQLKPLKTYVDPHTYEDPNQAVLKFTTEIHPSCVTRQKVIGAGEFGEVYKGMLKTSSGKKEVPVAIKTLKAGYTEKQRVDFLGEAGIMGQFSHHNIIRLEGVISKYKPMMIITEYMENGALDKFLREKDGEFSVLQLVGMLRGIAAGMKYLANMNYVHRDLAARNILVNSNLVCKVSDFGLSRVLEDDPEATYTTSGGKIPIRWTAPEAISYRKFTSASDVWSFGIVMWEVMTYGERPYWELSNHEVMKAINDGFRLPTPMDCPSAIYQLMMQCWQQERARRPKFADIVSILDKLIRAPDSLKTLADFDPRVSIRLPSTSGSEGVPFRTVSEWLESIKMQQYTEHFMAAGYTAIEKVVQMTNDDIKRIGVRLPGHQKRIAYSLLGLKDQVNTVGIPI
# method-description: Kinase selectivity, % remaining activity
# Assay type: biochemical
# recorded-conditions: 10 μM compound, 10 μM ATP, duplicate, read-out: % of remaining activity (relative to DMSO)
Flag rule - remaining activity at 10 µM less than 60% flags t; the remaining entries get f.

[[record]]
smiles_representation = "NC(=O)c1c(N)c(C(=O)c2ccc(F)cc2)n2ccccc12"
cat = "t"


Bench note: check whether COc1ccc(C=C2N=C(c3cccs3)OC2=O)cc1 shows remaining activity at 10 µM below 60%
f

Bench note: check whether Nc1ncnc2c1c(COc1cccc(Cl)c1)nn2C1CCOCC1 shows remaining activity at 10 µM below 60%
t

Bench note: check whether Nc1ncc(-c2nc3ccccc3o2)c(-c2ccncc2)n1 shows remaining activity at 10 µM below 60%
f

###

# key: entry, value: remaining activity at 10 µM
# measurement-target: CK1a1 (Homo sapiens)
# Sequence (P48729 whole entry): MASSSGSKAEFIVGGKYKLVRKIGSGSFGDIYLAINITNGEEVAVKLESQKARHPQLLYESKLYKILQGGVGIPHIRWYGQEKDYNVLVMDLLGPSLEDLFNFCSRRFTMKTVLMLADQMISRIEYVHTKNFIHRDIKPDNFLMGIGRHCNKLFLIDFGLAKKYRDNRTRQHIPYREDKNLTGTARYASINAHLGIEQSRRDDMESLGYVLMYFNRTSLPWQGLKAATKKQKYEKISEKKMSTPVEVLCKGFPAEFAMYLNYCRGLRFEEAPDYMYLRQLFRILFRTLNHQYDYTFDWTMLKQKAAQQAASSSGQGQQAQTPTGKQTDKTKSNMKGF
# method-description: Kinase selectivity, % remaining activity
# Format: biochemical
# recorded-conditions: CK1a1; 10 μM compound, 10 μM ATP, duplicate; read-out: % of remaining activity (relative to DMSO)
Write the value in % as a bare number.

The following compounds have reported results that may help.
[[record]]
smiles_representation = "NC(=O)c1c(N)c(C(=O)c2ccc(F)cc2)n2ccccc12"
assay_metric = "remaining activity at 10 µM"
endpoint_value = 20.3

[[record]]
smiles_representation = "Nc1ncc(-c2nc3ccccc3o2)c(-c2ccncc2)n1"
assay_metric = "remaining activity at 10 µM"
endpoint_value = 65.7

[[record]]
smiles_representation = "CNc1c(C(N)=O)c2ccccn2c1C(=O)c1ccc(F)cc1"
assay_metric = "remaining activity at 10 µM"
endpoint_value = 5.17


Record COc1ccc(C=C2N=C(c3cccs3)OC2=O)cc1 : what is its remaining activity at 10 µM with CK1a1 (Homo sapiens)?
33.6

###

# key: entry, value: half-life
# method-description: Pharmacokinetics in male CD-1 mice
# Assay type: in vivo
# recorded-conditions: mouse; IV 3 mg/kg, plasma, male CD-1 mice

[[record]]
molecule = "CNc1c(C(N)=O)c2ccccn2c1C(=O)c1ccc(F)cc1 [Compound A]"
assay_metric = "half-life"
endpoint_value = "13.8 min"


We next turn to a different molecule, shown below.
Please report the recorded half-life for Nc1ncc(-c2nc3ccccc3o2)c(-c2ccncc2)n1 [Comparative Compound 324] .
5.46 min

###

# method-description: Pharmacokinetics in male CD-1 mice
# Format: in vivo
# recorded-conditions: mouse, plasma; PO 30 mg/kg, male CD-1 mice; read-out: F (oral bioavailability)
assay-metric: bioavailability (%)
Write the value in % as a bare number.

[[record]]
smiles_representation = "CNc1c(C(N)=O)c2ccccn2c1C(=O)c1ccc(F)cc1"
units_label = "%"
endpoint_value = 9


We next turn to a different compound, shown below.
Please report the recorded bioavailability for Nc1ncc(-c2nc3ccccc3o2)c(-c2ccncc2)n1 .
40

###

# measurement-target: ABL2/ARG (Homo sapiens, UniProt P42684)
# Sequence (P42684 whole entry): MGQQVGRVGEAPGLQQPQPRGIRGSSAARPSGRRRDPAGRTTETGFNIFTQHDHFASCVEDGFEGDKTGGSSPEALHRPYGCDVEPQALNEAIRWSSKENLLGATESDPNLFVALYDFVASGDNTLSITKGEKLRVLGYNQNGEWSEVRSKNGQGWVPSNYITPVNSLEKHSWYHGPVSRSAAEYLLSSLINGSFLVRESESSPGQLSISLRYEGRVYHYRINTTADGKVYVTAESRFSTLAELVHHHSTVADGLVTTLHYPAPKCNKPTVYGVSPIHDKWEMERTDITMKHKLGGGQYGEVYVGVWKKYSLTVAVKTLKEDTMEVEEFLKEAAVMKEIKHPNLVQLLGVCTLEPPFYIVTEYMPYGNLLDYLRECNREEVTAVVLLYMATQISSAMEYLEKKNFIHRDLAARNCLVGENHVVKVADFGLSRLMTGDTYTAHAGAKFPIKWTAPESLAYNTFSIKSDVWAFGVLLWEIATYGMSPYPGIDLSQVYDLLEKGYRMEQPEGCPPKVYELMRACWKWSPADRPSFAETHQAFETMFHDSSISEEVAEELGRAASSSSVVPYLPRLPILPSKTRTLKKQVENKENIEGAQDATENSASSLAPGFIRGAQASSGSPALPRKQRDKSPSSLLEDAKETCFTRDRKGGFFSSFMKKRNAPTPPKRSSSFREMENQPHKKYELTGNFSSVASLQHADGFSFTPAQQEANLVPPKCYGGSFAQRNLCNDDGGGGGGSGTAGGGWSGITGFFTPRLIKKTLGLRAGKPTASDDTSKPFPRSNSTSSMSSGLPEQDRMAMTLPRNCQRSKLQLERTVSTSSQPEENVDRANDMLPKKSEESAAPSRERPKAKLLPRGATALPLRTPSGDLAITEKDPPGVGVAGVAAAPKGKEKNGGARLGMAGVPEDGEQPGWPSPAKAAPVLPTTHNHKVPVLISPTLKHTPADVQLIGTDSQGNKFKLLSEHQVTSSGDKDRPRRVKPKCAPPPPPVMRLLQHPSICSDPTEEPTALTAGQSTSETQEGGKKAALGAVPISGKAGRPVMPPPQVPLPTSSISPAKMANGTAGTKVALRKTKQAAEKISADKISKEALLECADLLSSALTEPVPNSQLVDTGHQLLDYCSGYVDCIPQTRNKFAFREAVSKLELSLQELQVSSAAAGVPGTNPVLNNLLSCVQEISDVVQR
# method-description: Kinase selectivity, % remaining activity
# Assay type: biochemical
# recorded-conditions: 10 μM compound, 10 μM ATP, duplicate, read-out: % of remaining activity (relative to DMSO)
Flag rule - remaining activity at 10 µM less than 90% flags rule met; the remaining entries get rule not met.

[[record]]
smiles_representation = "Nc1ncc(-c2nc3ccccc3o2)c(-c2ccncc2)n1"
cat = "rule not met"

[[record]]
smiles_representation = "CNc1c(C(N)=O)c2ccccn2c1C(=O)c1ccc(F)cc1"
cat = "rule met"

[[record]]
smiles_representation = "COc1ccc(C=C2N=C(c3cccs3)OC2=O)cc1"
cat = "rule met"


Please turn your attention to the following entry.
Bench note: check whether Nc1ncnc2c1c(COc1cccc(Cl)c1)nn2C1CCOCC1 shows remaining activity at 10 µM below 90%
rule met
